Entry source: patent US5498780A

# TEST PROTOCOL: 50% lethal dose by single peritoneal administration, obtained at the time of the dose setting
# Format: in vivo, CDF1 mice
# Description: In these tables, ILSmax means maximum ILS value (%), and corresponding dose (mg/kg) is Shown in parenthesis.
QUANTITY NAME: LD50 (50% lethal dose) (mg/kg)

> print(dat)
                                    compound           quantity.name   unit  measurement
 1                       CCON.N.[Cl][Pt][Cl]  LD50 (50% lethal dose)  mg/kg         22.1
 2                        CON.N.[Cl][Pt][Cl]  LD50 (50% lethal dose)  mg/kg         22.1
 3             CCCO[NH][Pt]([NH2])([Cl])[Cl]  LD50 (50% lethal dose)  mg/kg         11.0
 4  CCCO[NH][Pt]1([NH2])[O]C(=O)C2(CCC2)C(=O)[O]1  LD50 (50% lethal dose)  mg/kg        176.8
 5         CCON.N.O=C1[O][Pt][O]C(=O)C12CCC2  LD50 (50% lethal dose)  mg/kg        176.8
 6  N.NC1CCCCC1.[Cl][Pt][Cl] [Comparative drug A, reference compound]  LD50 (50% lethal dose)  mg/kg         31.3
 7                 N.NOC1CCCCC1.[Cl][Pt][Cl]  LD50 (50% lethal dose)  mg/kg         22.1
 8                 CC(C)(C)ON.N.[Cl][Pt][Cl]  LD50 (50% lethal dose)  mg/kg         22.1
 9          CCO[NH][Pt]([Cl])([Cl])[NH]C(C)C  LD50 (50% lethal dose)  mg/kg         22.1
10  N.N.O=C([O-])C1(C(=O)[O-])CCC1.[Pt+2] [Carboplatin, carboplatin, reference compound]  LD50 (50% lethal dose)  mg/kg        245.0
11  CC(C)(C)O[NH][Pt]1([NH2])[O]C(=O)C2(CCC2)C(=O)[O]1  LD50 (50% lethal dose)  mg/kg        250.0
12                        CNO.N.[Cl][Pt][Cl]  LD50 (50% lethal dose)  mg/kg         15.6
13                 N.ONC1CCCCC1.[Cl][Pt][Cl]  LD50 (50% lethal dose)  mg/kg         88.2

====

# Tested on: murine L1210 leukemia cell
# TEST PROTOCOL: Antitumor effect on murine L1210 leukemia cell (increase in life-span of inoculated mice)
# Format: in vivo, murine; male CDF1 mice
# SETUP CONDITIONS: L1210; Table 4 test lot
QUANTITY NAME: TI (therapeutic index, LD50 value/ILS50 value)

> print(dat)
                                   compound  bound.sign  measurement
1  N.ONC1CCCCC1.[Cl][Pt][Cl] [Compound No. 4]           =         42.0
2  N.NC1CCCCC1.[Cl][Pt][Cl] [Comparative drug A, reference compound]           >         31.3
3  N.N.O=C([O-])C1(C(=O)[O-])CCC1.[Pt+2] [Carboplatin, carboplatin, reference compound]           =          6.0
4      CCON.N.[Cl][Pt][Cl] [Compound No. 5]           =         24.6

====

# System: murine L1210 leukemia cell
# TEST PROTOCOL: Antitumor effect on murine L1210 leukemia cell (increase in life-span of inoculated mice)
# Format: in vivo, murine; male CDF1 mice
# SETUP CONDITIONS: L1210, i.p. once a day for 5 days, linear regression; Table 5 test lot
// values below are reported ILS50 (dose which shows 50% of the ILS value by 5 administrations)
QUANTITY NAME: ILS50 (dose which shows 50% of the ILS value by 5 administrations) (mg/kg)

> print(dat)
                                   compound               target.entity   unit  measurement
1  CCCO[NH][Pt]([NH2])([Cl])[Cl] [Compound No. 8]  murine L1210 leukemia cell  mg/kg          0.8
2  CC(C)(C)ON.N.[Cl][Pt][Cl] [Compound No. 7]  murine L1210 leukemia cell  mg/kg          1.5
3  N.N.[Cl][Pt][Cl] [Cisplatin, cisplatin, reference compound]  murine L1210 leukemia cell  mg/kg          1.1
4  CCO[NH][Pt]([Cl])([Cl])[NH]C(C)C [Compound No. 12]  murine L1210 leukemia cell  mg/kg          1.5
5  N.N.O=C([O-])C1(C(=O)[O-])CCC1.[Pt+2] [Carboplatin, carboplatin, reference compound]  murine L1210 leukemia cell  mg/kg         33.9
6  N.NOC1CCCCC1.[Cl][Pt][Cl] [Compound No. 9]  murine L1210 leukemia cell  mg/kg          1.3

====

# Test system: murine P388 leukemia cell
# TEST PROTOCOL: Antitumor effect on murine P388 leukemia cell
# Assay type: in vivo, murine; male CDF1 mice
# SETUP CONDITIONS: P388, i.p. once a day for 5 days, 30 days observation; Table 10 test lot
QUANTITY NAME: ILSmax (maximum percent increase in life-span) (%)

> print(dat)
                                   compound              target.entity  bound.sign  measurement
1  N.N.[Cl][Pt][Cl] [Cisplatin, cisplatin, reference compound]  murine P388 leukemia cell           >        120.9
2  CCCO[NH][Pt]1([NH2])[O]C(=O)C2(CCC2)C(=O)[O]1  murine P388 leukemia cell           =         72.7
3  N.N.O=C([O-])C1(C(=O)[O-])CCC1.[Pt+2] [Carboplatin, carboplatin, reference compound]  murine P388 leukemia cell           =         57.3
4         CCON.N.O=C1[O][Pt][O]C(=O)C12CCC2  murine P388 leukemia cell           =         93.6
5  CC(C)(C)O[NH][Pt]1([NH2])[O]C(=O)C2(CCC2)C(=O)[O]1  murine P388 leukemia cell           =         72.7

====

# System: murine L1210 leukemia cell
# TEST PROTOCOL: Antitumor effect on murine L1210 leukemia cell (increase in life-span of inoculated mice)
# Assay type: in vivo, murine; male CDF1 mice
# SETUP CONDITIONS: L1210, i.p. once a day for 5 days; Table 4 test lot
# maps each entry to its dose corresponding to ILSmax
QUANTITY NAME: dose corresponding to ILSmax (mg/kg)

> print(dat)
                                   compound  measurement
1  N.N.[Cl][Pt][Cl] [Cisplatin, cisplatin, reference compound]          4.0
2  N.NC1CCCCC1.[Cl][Pt][Cl] [Comparative drug A, reference compound]          8.0
3      CCON.N.[Cl][Pt][Cl] [Compound No. 5]          4.0
4  N.ONC1CCCCC1.[Cl][Pt][Cl] [Compound No. 4]          8.0
5  N.N.O=C([O-])C1(C(=O)[O-])CCC1.[Pt+2] [Carboplatin, carboplatin, reference compound]         64.0

====

# Tested on: murine P388 leukemia cell
# TEST PROTOCOL: Antitumor effect on murine P388 leukemia cell
# Assay type: in vivo, murine; male CDF1 mice
# SETUP CONDITIONS: P388; Table 10 test lot
QUANTITY NAME: TI (therapeutic index, LD50 value/ILS50 value)

> print(dat)
                                   compound              target.entity  measurement
1  CCCO[NH][Pt]1([NH2])[O]C(=O)C2(CCC2)C(=O)[O]1 [Compound No. 16]  murine P388 leukemia cell         21.6
2  N.N.O=C([O-])C1(C(=O)[O-])CCC1.[Pt+2] [Carboplatin, carboplatin, reference compound]  murine P388 leukemia cell         17.8
3  CCON.N.O=C1[O][Pt][O]C(=O)C12CCC2 [Compound No. 15]  murine P388 leukemia cell         21.6
4  CC(C)(C)O[NH][Pt]1([NH2])[O]C(=O)C2(CCC2)C(=O)[O]1 [Compound No. 17]  murine P388 leukemia cell         20.2
